MEASUREMENT_NOTES: viability of PTEN-null HCT116 cells – cell-based, HCT116 clonal line, CellTiter-Glo, pilot screen (AID 824);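 further: 0% = 20 µM Hyamine control and 100% = vehicle cell control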
CONDITION_CONTEXT: HCT116 PTEN-deleted viability, 60 h, at 10 µM, stronger effect = lower value
Records with an inconclusive call do not appear.
// assign criterion met if viability falls strictly below 90%, else criterion not met (ties count as criterion not met)

Before answering, review these 8 worked examples.
Problem: Answer whether the molecule CCN1CCN(c2ncnc3c2cnn3-c2ccc(C)cc2C)CC1 has viability strictly less than 90%
Result: criterion met

Problem: Answer whether the molecule COc1cccc(CNC(=O)CCS(=O)(=O)c2cccc3nsnc23)c1 has viability strictly less than 90%
Result: criterion not met

Problem: Answer whether the molecule COc1cccc(NC(=O)C2CCCN(S(=O)(=O)c3cccc4cccnc34)C2)c1 (stereo unspecified) has viability strictly less than 90%
Result: criterion met

Problem: Answer whether the molecule COc1cccc(C2=N/C(=C\N(C)C)C(=O)O2)c1 has viability strictly less than 90%
Result: criterion not met

Problem: Answer whether the molecule CCc1nc2sc(C)c(C)c2c(=O)n1CCO has viability strictly less than 90%
Result: criterion not met

Problem: Answer whether the molecule CN(C)C(=O)Nc1cnc2ccccc2c1 has viability strictly less than 90%
Result: criterion not met

Problem: Answer whether the molecule CC(=O)c1cccc(NC(=O)CCOc2ccccc2)c1 has viability strictly less than 90%
Result: criterion not met

Problem: Answer whether the molecule COc1ccccc1N(CC(O)CN1C(=O)NC(C)(C)C1=O)S(=O)(=O)c1ccc(C)cc1 (stereo unspecified) has viability strictly less than 90%
Result: criterion not met

Next:
Problem: Answer whether the molecule Fc1ccc(-c2nnc3ccc(N4CCCC4)nn23)cc1 has viability strictly less than 90%
Result: criterion met

Problem: Answer whether the molecule COc1cccc2cc(C(=O)N3CCN(c4ccc(C)cc4C)CC3)c(=O)oc12 has viability strictly less than 90%
Result: criterion met

Problem: Answer whether the molecule CC1CCN(C(=O)CSc2nnc(Cc3cc(=O)[nH]c(=O)[nH]3)n2-c2ccc(Cl)cc2)CC1 has viability strictly less than 90%
Result: criterion not met

Problem: Answer whether the molecule COc1ccc(S(=O)(=O)N2CCCC2C(=O)Nc2ccc(O)cc2)cc1 (stereo unspecified) has viability strictly less than 90%
Result: criterion not met

Problem: Answer whether the molecule COC(=O)c1ccc(NC(=O)CN2CCCC2)cc1 has viability strictly less than 90%
Result: criterion not met

Problem: Answer whether the molecule CCOc1ccc(NC(=O)CN2C(=O)C3CCCN3C2=O)cc1 (stereo unspecified) has viability strictly less than 90%
Result: criterion not met

----------
MEASUREMENT_NOTES: viability of HCT116 without oncogenic beta-catenin – human colon tumor cells, pilot screen (AID 823);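 further: 0% = wells killed by 20 µM Hyamine and 100% = untreated DMSO cell wells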
CONDITION_CONTEXT: HCT116 beta-catenin knockout viability, CellTiter-Glo, 60 h; at 10 µM
Results filed as inconclusive are left out. Calls of active or inactive are those of the source.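 Rule for the calls: active = cell viability at or below a set limit in both duplicate runs, the limit being the all-compound median minus 4 SD (cut at about 23% in these data, passing the limit was not always enough); inconclusive = no clear call, values can overlap the other calls; inactive = the rest.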
// classify into T = active, F = inactive

Problem: // return assay outcome for O=C1NCC2=C1C(c1ccc(Br)cc1)Nc1ccccc1N2 (stereo unspecified)
Result: F

Problem: // return assay outcome for Cc1noc(C)c1S(=O)(=O)N1CCC(C(=O)N2CCC(N3CCCCC3)CC2)CC1
Result: F

Problem: // return assay outcome for Cn1c(=O)c2c(nc(CN3CCN(Cc4ccccc4)CC3)n2Cc2ccc(Cl)cc2)n(C)c1=O
Result: T

Problem: // return assay outcome for N#C/C(C(=O)c1ccccc1)=C1/CCCN1
Result: F

Problem: // return assay outcome for CC(=O)c1sc(NC(=O)C2COc3ccccc3O2)nc1C (stereo unspecified)
Result: F

Next:
Problem: // return assay outcome for CCN(CC)C(=O)CCCOc1ccc(Cl)cc1Cl
Result: F

Problem: // return assay outcome for COC(=O)c1ccc(-c2nc(-c3ccc(Br)o3)no2)cc1
Result: F

Problem: // return assay outcome for COC(=O)CSc1nc2nc(C)cc(C)n2n1
Result: F

----------
MEASUREMENT_NOTES: growth suppression of yeast trafficking mutant, preliminary HTS, modulators of trafficking downstream of Golgi apparatus project, 1536-format plate, OD 615 nm (AID 637)
CONDITION_CONTEXT: yeast transport mutant growth, absorbance 615 nm, 18 h; stronger effect = higher value
Property: inhibition; scope: individual compounds
Record the value in %, omitting the unit from your answer.

Problem: Record request: inhibition value, item CCOC(=O)N1CCN(C(=O)CSc2nnc(COc3ccccc3)o2)CC1
Result: -7.21

Next up:
Problem: Record request: inhibition value, item COc1ccc(CCNC(=O)c2cnn3ccccc23)c(OC)c1OC
Result: -2.67

----------
MEASUREMENT_NOTES: RAM pathway blockade in budding yeast – dse1pr::URA3 reporter, 5-FOA selection, pilot screen (AID 869);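 further: 0% = DMSO wells with no growth and 100% = 10 µM 1-NA-PP1 with full growth; RAM network block rescues cells from 5-FOA so hits raise OD615 growth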
CONDITION_CONTEXT: S. cerevisiae dse1pr::URA3 5-FOA growth, OD615, 2 d; at 10 µM; stronger effect = higher value; strain carries analog-sensitive mutant Cbk1 kinase
Calls of active or inactive are those of the source.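 How the source made its calls: active means inhibition over a set limit, the all-compound mean plus 3 SD, in both replicate runs; inconclusive means over that limit in just one replicate run; inactive means at or under that limit in both runs.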
READOUT_TYPE: inhibition

Problem: Record request: inhibition value, item Cn1cc(C2NC(=O)c3c(sc4c3CCCC4)N2)c2ccccc21 (stereo not given)
Result: 0.64% (inactive)

Next:
Problem: Record request: inhibition value, item COc1ccc(C2(C(=O)NCCCN(C)C)CCOCC2)cc1
Result: 1.26% (inactive)

Problem: Record request: inhibition value, item CCOC(=O)C1CCCN(C(=O)c2ccc(CNc3c(N4CCC(C)CC4)c(=O)c3=O)cc2)C1 (stereo not given)
Result: 2.57% (inactive)

Problem: Record request: inhibition value, item COc1cc(C2NC(=O)NC(C)=C2C(=O)OCC2CCCO2)ccc1O (stereo not given)
Result: 1.59% (inactive)

----------
MEASUREMENT_NOTES: viability of PTEN-null HCT116 cells – cell-based, HCT116 clonal line, CellTiter-Glo, pilot screen (AID 824);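 further: 0% = 20 µM Hyamine control and 100% = vehicle cell control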
CONDITION_CONTEXT: HCT116 PTEN-deleted viability, 60 h, at 10 µM, stronger effect = lower value
Results filed as inconclusive are left out.
// assign true if viability falls strictly below 80%, else false (ties count as false)

Before answering, review these 3 worked examples.
Problem: Answer whether the molecule O=C(Nc1ccccn1)c1cccc(S(=O)(=O)N2CCOCC2)c1 has viability strictly less than 80%
Result: false

Problem: Answer whether the molecule CCOC(=O)N1CCN(c2nc(C)cc(C(F)(F)F)n2)CC1 has viability strictly less than 80%
Result: false

Problem: Answer whether the molecule CCOC(=O)c1c(NC(=O)c2ccc(Br)o2)sc(C)c1CC has viability strictly less than 80%
Result: true

Next:
Problem: Answer whether the molecule CC1CCCC(N2CCN(C(=O)c3ccc(F)cc3)CC2)C1 (stereo unspecified) has viability strictly less than 80%
Result: false

Problem: Answer whether the molecule CCOC(=O)c1ccc(N2C(=O)C3CC=C(C)CC3C2=O)cc1 (stereo unspecified) has viability strictly less than 80%
Result: false

----------
MEASUREMENT_NOTES: yeast transport mutant growth inhibition pilot in 384-well plates, post-Golgi transport modulator project (AID 636)
CONDITION_CONTEXT: absorbance 615 nm, about 18 h, stronger effect = higher value
READOUT_TYPE: inhibition (%)
Record the value in %, omitting the unit from your answer.

As a guide, the following entries are already answered.
Problem: Record request: inhibition value, item Cc1noc(/C=C/N(C)C)c1S(=O)(=O)N1CCCC(C(=O)N2CCc3ccccc32)C1 (stereo not given)
Result: -5.2

Problem: Record request: inhibition value, item CC1=C(C(=O)OC(C)C)C(c2cccc(F)c2)n2ncnc2N1 (stereo not given)
Result: 0.27

Problem: Record request: inhibition value, item COc1ccccc1Oc1ccc(S(=O)(=O)N2CCOCC2)cc1S(=O)(=O)N1CCOCC1
Result: -0.77

Problem: Record request: inhibition value, item CCOCCCNC(=O)C(NC(=O)c1ccccn1)c1ccc(C)cc1 (stereo not given)
Result: -2.6

Problem: Record request: inhibition value, item CCOC(=O)N1CCN(Cc2nc3c(c(=O)n(C)c(=O)n3C)n2Cc2ccc(F)cc2)CC1
Result: -4.27

Next:
Problem: Record request: inhibition value, item Cc1noc(/C=C/N(C)C)c1S(=O)(=O)N1CCCC(C(=O)N2CCCCC2)C1 (stereo not given)
Result: 1.07

Problem: Record request: inhibition value, item CCOC(=O)Cn1c(=O)c(-c2ccccc2N)nc2ccccc21
Result: -5.6

Problem: Record request: inhibition value, item O=C(Nc1ccc(N2C(=O)C3C4C=CC(C4)C3C2=O)cc1)Nc1nncs1 (stereo not given)
Result: -3.47

Problem: Record request: inhibition value, item Cc1cccc(N2CCN(C(=O)c3cc4ccccc4oc3=O)CC2)c1C
Result: -6.53

Problem: Record request: inhibition value, item CCc1ccc(C(=O)NC2CCCCC2)s1
Result: -3.01

----------
MEASUREMENT_NOTES: RAM signaling pathway blockade in yeast – S. cerevisiae, Pdr1DBD-CYC8 efflux-inhibited sensitized strain, primary screen (AID 1298);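 further: 0% = DMSO untreated cells without growth and 100% = 10 µM 1-NA-PP1 full growth; higher means more yeast growth rescued from 5-FOA killing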
CONDITION_CONTEXT: S. cerevisiae cbk1-as DSE1-URA3 strain, 5-FOA growth OD615, 2 d; at 50 µM; stronger effect = higher value
Property: RAM network inhibition; scope: individual compounds
Record the value in %, omitting the unit from your answer.

As a guide, the following entries are already answered.
Problem: Record request: RAM network inhibition value, item CCOCCCNC(=O)C(NC(=O)c1ccccn1)c1ccc(C)cc1 (configuration not stated)
Result: 0.36

Problem: Record request: RAM network inhibition value, item Cc1ccc(OCC(=O)Nc2ccc(O)c(-c3nc4ccccc4o3)c2)cc1
Result: 2.6

Problem: Record request: RAM network inhibition value, item CCN(CC)C(=O)COc1ccc2oc(C)c(C(=O)OC(C)C)c2c1
Result: 7.42

Next:
Problem: Record request: RAM network inhibition value, item O=C(c1cnccn1)N(c1ccccc1)C1(C(=O)NC2CCCC2)CCCCC1
Result: 3.39

Problem: Record request: RAM network inhibition value, item COc1cc(NC(=O)C2C3C=CC(C3)C2C(=O)O)c(OC)cc1Cl (configuration not stated)
Result: 1.54

Problem: Record request: RAM network inhibition value, item CCN(CC)CCn1c(=N)n(CCO)c2ccccc21
Result: 4.92

Problem: Record request: RAM network inhibition value, item CN(C)CCN1C(=O)C(O)=C(C(=O)c2cc3ccccc3o2)C1c1ccc(N(C)C)cc1 (configuration not stated)
Result: 2.42

Problem: Record request: RAM network inhibition value, item Cc1ccnc(SCCn2c(N3CCN(Cc4ccccc4)CC3)nc3c2c(=O)[nH]c(=O)n3C)n1
Result: 2.81
